assay: chemical genetic growth profiling, strain panel (AID 1159580);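 further: tested at 20 µM; growth read once vehicle control cultures reached saturation at 30 °C; 1 = growth at the plate median or of vehicle wells; lower values mean less growth of the strain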; details: S. cerevisiae deletion strains, growth OD, locus YNL248C, strain rpa49
In all, about 5,500 compounds went through this assay and about 2,000 (36%) were called active. Inconclusive results (about 18%) are left out. No stated cut-off is given here; in the data, active means normalized growth mostly below about 0.91 (no sharp cut-off); inconclusive means no clear call, values can overlap the other calls; inactive means mostly above about 0.92. The list shows a part of the results.
// allowed return values: 1 (yes) for active, 0 (no) for inactive

Reference set (5 entries):
compound: CN1C(C(=O)Nc2ccccn2)=C(O)c2ccccc2S1(=O)=O
discrete-label: 1 (yes)
--
compound: Oc1ccc(Cl)cc1
discrete-label: 0 (no)
--
compound: O=C(O)CN1C(=O)c2cccc3cccc(c23)C1=O
discrete-label: 0 (no)
--
compound: O=C1NC(=O)C(=O)C(=O)N1
discrete-label: 0 (no)
--
compound: NC(N)=NS(=O)(=O)c1ccc(N)cc1
discrete-label: 0 (no)

How was CCN(CC)C(=O)c1cccc(C)c1 classified in this test?
0 (no)

How was NC(=O)c1cccc(N)c1 classified in this test?
0 (no)

How was N[C@@H](CC(=O)N1CCn2c(nnc2C(F)(F)F)C1)Cc1cc(F)c(F)cc1F classified in this test?
0 (no)

====

experiment: chemical genetic growth profiling, strain panel (AID 1159580); settings: S. cerevisiae deletion strains, growth OD, locus YGR252W, strain gcn5, active compounds read low
Hit rate of the full screen: of about 5,500 compounds, about 2,000 (36%) were called active. Not shown: some 18% with an inconclusive outcome. The list shows a part of the results.
Please respond with reported normalized growth for every item in the list.
Give bare numbers.

compound: COc1ccc(CCN2CCC(Nc3nc4ccccc4n3Cc3ccc(F)cc3)CC2)cc1
normalized growth: 0.9

# batch size: 5; output normalized growth per entry
1. O=c1[nH]oc2c1CCNC2
2. CC1(C)C2(Cl)C(Cl)C(Cl)C(Cl)(C(Cl)Cl)C1(Cl)C2Cl (configuration not stated)
3. CCOC(=O)[C@H](CCc1ccccc1)N[C@@H](C)C(=O)N1[C@H](C(=O)O)C[C@@H]2CCC[C@@H]21
4. CC(C)COCC(CN(Cc1ccccc1)c1ccccc1)N1CCCC1 (configuration not stated)
5. CCCCOC(=O)c1ccccc1C(=O)OCCCC

[0.97, 0.956, 1.03, 0.734, 0.992]

# batch size: 2; output normalized growth per entry
1. CCCCOC(=O)c1ccccc1C(=O)OCc1ccccc1
2. O=C(O)c1cc2cc(Cc3cccnc3)ccc2o1

1: 0.994; 2: 0.92

====

assay: chemical genetic growth profiling, strain panel (AID 1159580); conditions: S. cerevisiae deletion strains, growth OD, locus YJL166W, strain qcr8
Hit rate of the full screen: of about 5,500 compounds, about 2,000 (36%) were called active. Another 18% or so got no clear call; they are omitted. Rule as the data show it: active = normalized growth mostly below about 0.91 (no sharp cut-off); inconclusive = no clear call, values can overlap the other calls; inactive = mostly above about 0.92. This is one part of the list.
// allowed return values: t for active, f for inactive

molecule: Cc1ccc(C)c(OCCCC(C)(C)C(=O)O)c1
discrete-label: f
//
molecule: Nc1ccc(N=Nc2ccccc2)c(N)n1
discrete-label: t
//
molecule: CCOC(=O)Nc1nc2ccccc2[nH]1
discrete-label: f
//
molecule: CC(C)[C@@H]1CC[C@@H](C)C[C@H]1O
discrete-label: f
//
molecule: O=c1cc[nH]c(=S)[nH]1
discrete-label: f

Here is the next item to consider.
How was COC(=O)C(O)c1ccccc1 (configuration not stated) classified in this test?
f

====

experiment: chemical genetic growth profiling, strain panel (AID 1159580);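 further: tested at 20 µM; growth read once vehicle control cultures reached saturation at 30 °C; 1 = growth at the plate median or of vehicle wells; lower values mean less growth of the strain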; conditions: S. cerevisiae deletion strains, growth OD, locus YDR195W, strain ref2
Screen size: about 5,500 compounds; about 2,000 (36%) were called active. Another 18% or so got no clear call; they are omitted. Rule as the data show it: active = normalized growth mostly below about 0.91 (no sharp cut-off); inconclusive = no clear call, values can overlap the other calls; inactive = mostly above about 0.92. The list shows a part of the results.
// allowed return values: YES for active, NO for inactive

Reference set (10 entries):
compound: CCNC(=O)CC[C@H](N)C(=O)O
discrete-label: NO
--
compound: C=C1C(=O)O[C@@H]2C[C@@]3(C)CCC[C@H](C)C3=C[C@H]12
discrete-label: YES
--
compound: C=C1C(=O)O[C@@H]2C3O[C@]3(C)CC/C=C(\C)CC[C@@H]12 (some centres not stated)
discrete-label: NO
--
compound: O=c1[nH]oc2c1CCNC2
discrete-label: NO
--
compound: CC(=O)OCC[C@H](C)CCC=C(C)C
discrete-label: NO
--
compound: CC(=O)OCC(OC(C)=O)C(OC(C)=O)C(OC(C)=O)C(OC(C)=O)C(COC(C)=O)OC(C)=O (configuration not stated)
discrete-label: NO
--
compound: CC1=CC2C(CC1=O)C(C)=CCC2C(C)C (configuration not stated)
discrete-label: NO
--
compound: Cc1cc(NC(=O)C2=C(O)c3ccccc3S(=O)(=O)N2C)no1
discrete-label: NO
--
compound: OC(Cn1cncn1)(Cn1cncn1)c1ccc(F)cc1F
discrete-label: NO
--
compound: COC(=O)C1=CCCN(C)C1
discrete-label: NO

How was OCCOCCN1CCN(C2=Nc3ccccc3Sc3ccccc32)CC1 classified in this test?
NO

How was C=C1C(=O)OC2CC1C(OC(C)=O)C/C(C)=C/CC/C(C)=C/CC[C@]2(C)O (some centres not stated) classified in this test?
NO

====

assay: chemical genetic growth profiling, strain panel (AID 1159580);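 further: tested at 20 µM; growth read once vehicle control cultures reached saturation at 30 °C; 1 = growth at the plate median or of vehicle wells; lower values mean less growth of the strain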; conditions: S. cerevisiae deletion strains, growth OD, locus YCL061C, strain MRC1, active compounds read low
Among all 5,500 compounds or so, about 2,000 (36%) were called active. Not shown: some 18% with an inconclusive outcome. Some of the results follow.
test-readout: normalized growth
Answers are plain numbers.

These solved cases illustrate the format of a correct answer.
molecule: COc1cc2occ(-c3ccccc3)c(=O)c2c(OC)c1C
experimental-result: 0.973

molecule: C=C1C(=O)O[C@@H]2C[C@@]3(C)CCC[C@H](C)C3=C[C@H]12
experimental-result: 0.881

molecule: CC(=O)N[C@@H](CS)C(=O)O
experimental-result: 0.995

molecule: COC(=O)c1c(-c2c(Cl)cccc2Cl)noc1NC(=O)NN1CCCCC1
experimental-result: 1.01

# batch size: 8; output normalized growth per entry
1. C[N+]1(C)C2CC(OC(=O)[C@@H](CO)c3ccccc3)CC1C1OC12 (stereo partly drawn)
2. O=C1NC(=O)C(=O)C(=O)N1
3. CO/N=C(\C(=O)N[C@@H]1C(=O)N2C(C(=O)O)=C(COC(C)=O)CS[C@H]12)c1csc(N)n1
4. N#C/C(=C\c1ccc(Oc2ccccc2)nc1)S(=O)(=O)c1ccccc1
5. COc1cc(-c2coc3cc(OC)c(OC)c(OC)c3c2=O)cc(OC)c1OC
6. Nc1ccn(C2O[C@H](CO)[C@@H](O)[C@@H]2O)c(=O)n1 (stereo partly drawn)
7. Cc1cc(-c2ccccc2)nnc1NCCN1CCOCC1
8. CCN(CC)CCNC(=O)c1c(-c2c(Cl)cccc2Cl)noc1C

1. 0.977
2. 0.988
3. 0.964
4. 0.976
5. 1.01
6. 1.01
7. 0.985
8. 1.02

# batch size: 3; output normalized growth per entry
1. COc1ccc(-c2coc3cc(OC)cc(OC)c3c2=O)cc1
2. COc1ccccc1N=C(N)SCc1ccccc1
3. OC(CN1CCN(c2nc3ccc(Cl)cc3s2)CC1)CN1CCCN(c2ncc(C(F)(F)F)cc2Cl)CC1 (stereo not drawn)

1. 0.989
2. 1.01
3. 0.997

# batch size: 3; output normalized growth per entry
1. CCCCN1CCCCC1C(=O)Nc1c(C)cccc1C (stereo not drawn)
2. CCOC(=O)Cn1c(=O)c(C#N)cn(C(C)C)c1=O
3. Cc1cccc2c1N(C(=S)Nc1ccccc1Cl)CCC2

0.981
0.993
0.898

# batch size: 2; output normalized growth per entry
1. CC(C)COCC(CN(Cc1ccccc1)c1ccccc1)N1CCCC1 (stereo not drawn)
2. CC1=CC2C(CC1=O)C(C)=CCC2C(C)C (stereo not drawn)

1: 1.02; 2: 0.991

# batch size: 3; output normalized growth per entry
1. COc1c2ccoc2c(OC)c2oc(=O)ccc12
2. C=C1CCC(OC(C)=O)/C(C)=C/C[C@@H]2[C@@H]1CC2(C)C (stereo partly drawn)
3. CCCCCCCCCCCCCCCC(=O)OC1C(SC)OC(C(NC(=O)C2CC(CCC)CN2C)C(C)Cl)C(O)C1O (stereo not drawn)

1: 0.944; 2: 1.01; 3: 0.98

====

assay: chemical genetic growth profiling, strain panel (AID 1159580);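 further: tested at 20 µM; growth read once vehicle control cultures reached saturation at 30 °C; 1 = growth at the plate median or of vehicle wells; lower values mean less growth of the strain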; conditions: S. cerevisiae deletion strains, growth OD, locus YLR268W, strain sec22
Hit rate of the full screen: of about 5,500 compounds, about 2,000 (36%) were called active. About 18% were inconclusive and are not listed. No stated cut-off is given here; in the data, active means normalized growth mostly below about 0.91 (no sharp cut-off); inconclusive means no clear call, values can overlap the other calls; inactive means mostly above about 0.92. This is one part of the list.
// allowed return values: active, inactive

Reference set (5 entries):
compound: CN1C(C(=O)Nc2ccccn2)=C(O)c2ccccc2S1(=O)=O
discrete-label: inactive
//
compound: CC1(C)C2CC(=O)[C@]3(C)C(CC[C@@]4(C)[C@H](c5ccoc5)OC(=O)[C@H]5O[C@]543)[C@@]2(C)C=C[C@@H]1O (stereo partly specified)
discrete-label: inactive
//
compound: OCc1ccccc1O
discrete-label: inactive
//
compound: Cc1cc(NC(=O)C2=C(O)c3ccccc3S(=O)(=O)N2C)no1
discrete-label: inactive
//
compound: CCCCN1CCCCC1C(=O)Nc1c(C)cccc1C (stereo unspecified)
discrete-label: inactive

How was CC[N+](CC)(CC)CCOc1cccc(OCC[N+](CC)(CC)CC)c1OCC[N+](CC)(CC)CC classified in this test?
inactive

How was CCCNC1CCc2nc(N)sc2C1 (stereo unspecified) classified in this test?
inactive

How was COc1ccc(CCN2CCC(Nc3nc4ccccc4n3Cc3ccc(F)cc3)CC2)cc1 classified in this test?
inactive

How was NC(=O)c1cccc(N)c1 classified in this test?
inactive

How was O=C(C1CCCCC1)N1CC(=O)N2CCc3ccccc3C2C1 (stereo unspecified) classified in this test?
inactive

How was Oc1ccc(Cl)cc1Cc1cc(Cl)ccc1O classified in this test?
active
